All values here come from PubChem BioAssay (NCI).

Test system: COLO 205 colon
Assay: NCI tumour cell line growth inhibition, 48 h
reported_property: log10 of TGI (log10 of the value in µM)
Values below are the log10 of the recorded TGI, with µM as the unit.

In the examples that follow, each entry is paired with its recorded log10 of TGI.
>  <sample_smiles>
N#Cc1cc(-c2ccccc2)[nH]c1-c1nccc2ccccc12

>  <assay_target>
COLO 205 colon

>  <log10 of TGI>
1.52

$$$$
>  <sample_smiles>
Fc1cc(C2=C[C@H](c3ccc4c(c3)OCO4)NC(=S)N2)c(Cl)cc1Cl

>  <assay_target>
COLO 205 colon

>  <log10 of TGI>
1.70

$$$$
>  <sample_smiles>
O=[N+]([O-])c1ccc(Oc2cccnc2)c([N+](=O)[O-])c1

>  <assay_target>
COLO 205 colon

>  <log10 of TGI>
0.64

$$$$
>  <sample_smiles>
O=C(CSc1nc2ccc(Cl)cc2c(=O)n1-c1ccccc1)N=Nc1c(O)[nH]c2ccc(F)cc12

>  <assay_target>
COLO 205 colon

>  <log10 of TGI>
0.68

$$$$
>  <sample_smiles>
COc1cccc(/C=N/[N-]C(N)=O)c1[O-].[Cu+2].[OH3+].c1cnc2c(c1)ccc1cccnc12

>  <assay_target>
COLO 205 colon

>  <log10 of TGI>
1.51

$$$$
>  <sample_smiles>
CN(C)c1ccc(/C=C2\C[C@H]3[C@@H]4CCC5=CC(=O)CC[C@]5(C)[C@H]4CC[C@]3(C)C2=O)cc1

>  <assay_target>
COLO 205 colon

>  <log10 of TGI>
1.81

$$$$
>  <sample_smiles>
O=C(c1ccsc1)c1cc2c(s1)C(=O)c1ccsc1C2=O

>  <assay_target>
COLO 205 colon

>  <log10 of TGI>
0.47

$$$$
>  <sample_smiles>
O=C(/C=C\c1cccc([N+](=O)[O-])c1)c1ccccc1

>  <assay_target>
COLO 205 colon

>  <log10 of TGI>
0.61

$$$$

// query Record lookup: for COLO 205 colon, what log10 of TGI belongs to Cc1cc(C)c2c(=O)n(CN3CCN(c4ccccc4)CC3)sc2n1 ?
// result 1.62

###

Tested on: NCI/ADR-RES ovarian
Assay: NCI tumour cell line growth inhibition, 48 h
reported_property: TGI

// query For CCC(C)[C@H]1C(=O)N=C(N)N1C(=O)OCc1ccccc1 (stereo not given in full) , what is its reported TGI?
// result > 100 µM

// query For O=C1C(CN(Cc2ccccc2)Cc2ccccc2)CCCC1CN(Cc1ccccc1)Cc1ccccc1 (stereo not given) , what is its reported TGI?
// result > 100 µM

// query For COc1cc(/C=C2/C[C@H]3[C@@H]4CCC5=CC(=O)CC[C@]5(C)[C@H]4CC[C@]3(C)NC2=O)cc(OC)c1OC , what is its reported TGI?
// result > 100 µM

// query For O=C(COC(c1ccc(F)cc1)c1ccc(F)cc1)N1CCN(CCCc2ccccc2)CC1 , what is its reported TGI?
// result 12.8 µM

// query For CCc1ccc(/C(C#N)=C/C=C/c2ccccc2)cc1 , what is its reported TGI?
// result > 100 µM

// query For O=C1OC(C2Cc3cc4c(cc3C2=O)CCC4)c2ccccc21 (stereo not given) , what is its reported TGI?
// result > 100 µM

// query For CSc1sc(C)cc1-c1nsc(=O)o1 , what is its reported TGI?
// result > 100 µM

###

System: A549 NSCLC
Experiment: NCI tumour cell line growth inhibition, 48 h
Reported TGI values for a set of compounds

In the examples that follow, each entry is paired with its recorded TGI.
>  <compound>
CCOC(=O)N/N=C/C1=NN(C(=O)OCC)S(=O)C1C (stereo not given)

>  <TGI>
> 100 µM

$$$$
>  <compound>
CCCCN(CCCC)c1cc(C(=O)CCCCCN)c2ccccc2n1

>  <TGI>
3.38 µM

$$$$
>  <compound>
COc1ccc(Cc2cc(OC)c(OC)c(OC)c2)cc1O

>  <TGI>
> 100 µM

$$$$
>  <compound>
COc1cc(O)c2c(=O)c3ccccc3n(C)c2c1

>  <TGI>
> 100 µM

$$$$
>  <compound>
CCOC(=O)CC/C(C)=N\n1c(Cc2ccc(Cl)cc2)n[nH]c1=O

>  <TGI>
> 100 µM

$$$$
>  <compound>
Cc1cc(=O)[nH]c(CNC(=O)c2cccc3ccccc23)n1

>  <TGI>
> 100 µM

$$$$

// query For O=C(/C=C\c1cccc([N+](=O)[O-])c1)c1ccccc1 , what is its reported TGI?
// result 68.2 µM

###

System: HOP-18 NSCLC
Test: NCI tumour cell line growth inhibition, 48 h
Reported TGI values for a set of molecules

>  <molecule>
COC1OC(COCc2ccc(Cl)cc2)C(OCc2ccc(Cl)cc2)C1O (stereo not given)

>  <TGI>
25.7 µM

$$$$
>  <molecule>
COC(=O)C(CCC1(C)OCCO1)C(C)=O (stereo not given)

>  <TGI>
> 100 µM

$$$$
>  <molecule>
CCCCCCCCCCCCCCCCc1c(C(=O)OC)[nH]c(=S)[nH]c1=O

>  <TGI>
> 50 µM

$$$$
>  <molecule>
COC(=O)C(C(=O)C(=O)Nc1c(Cl)cc([N+](=O)[O-])cc1Cl)c1nc2cc(C)c(C)cc2[nH]c1=O (stereo not given)

>  <TGI>
> 100 µM

$$$$

// query For CCC1(O)C(=O)OCc2c1cc1n(c2=O)Cc2c-1nc1ccccc1c2OC (stereo not given) , what is its reported TGI?
// result > 77.9 µM

###

System: KM12 colon
Experiment: NCI tumour cell line growth inhibition, 48 h; in the data active = GI50 below about 0.43 µM; inactive = the rest
Choose the fitting class; nothing outside True = active, False = inactive is accepted.

>  <molecule>
O=Cc1ncc(-c2ccc(C(F)(F)F)cc2)c(NC2CCCCCC2)n1

>  <group_label>
False

$$$$

// query # lookup: test call for O=C1OCC2=C1C(c1cccc([N+](=O)[O-])c1)c1cc3c(cc1N2CCO)CCC3 (stereo not given)
// result True

// query # lookup: test call for C[C@H]1O[C@@H](O[C@H]2[C@@H](O)C[C@H](O[C@H]3[C@@H](O)C[C@H](O[C@H]4CC[C@]5(C)C6C[C@@H](O)[C@]7(C)[C@@H](C8=CC(=O)OC8)CC[C@]7(O)C6CC[C@@H]5C4)O[C@@H]3C)O[C@@H]2C)C[C@H](O)[C@@H]1O (stereo not given in full)
// result True

// query # lookup: test call for Cc1nc(NC(=O)COc2cccc(/C=C3\COc4ccccc4C3=O)c2)sc1C
// result False

// query # lookup: test call for N#Cc1cc(-c2ccccc2)[nH]c1-c1nccc2ccccc12
// result False

// query # lookup: test call for C=C1CCCC(C)(C)[C@@H]1CC/C(C)=C/Cn1c2cccc(=O)c-2nc2ccccc21
// result False

// query # lookup: test call for Cc1ccccc1NC(=O)N/C(N)=N/c1nc2ccccc2s1
// result True

// query # lookup: test call for CN(C)c1cc2c(Nc3ccc4nc(Cc5ccccc5)[nH]c4c3)ncnc2cn1
// result False

// query # lookup: test call for COc1ccc(S(=O)(=O)Nc2cc(/C=C\c3cc(OC)c(OC)c(OC)c3)cc(OC)c2OC)cc1OC
// result False

// query # lookup: test call for CCc1ccc(/C(C#N)=C/C=C/c2ccccc2)cc1
// result False

###

Tested on: HL-60(TB) leukemia
Test: NCI tumour cell line growth inhibition, 48 h
Classification field: YES = TGI at or over 10 µM; NO = TGI under 10 µM.

Answered examples (10):
>  <molecule>
C/C(=C\CNc1ncnc2nc(Cl)[nH]c12)CO

>  <assay_target>
HL-60(TB) leukemia

>  <group_label>
YES

$$$$
>  <molecule>
CCOC(=O)c1ccc(-c2cccs2)n1C

>  <assay_target>
HL-60(TB) leukemia

>  <group_label>
YES

$$$$
>  <molecule>
COc1cccc(/C=N/[N-]C(N)=O)c1[O-].[Cu+2].[OH3+].c1cnc2c(c1)ccc1cccnc12

>  <assay_target>
HL-60(TB) leukemia

>  <group_label>
YES

$$$$
>  <molecule>
C/C=C1/CN2CCC34C5=CC(=O)C(c6cc7c(cc6OC)N(C)C6=C(C(=O)OC)CC8(CC)CCCN9CCC67C98)=CC5=NC23CCC1C4C(=O)OC (centres undefined)

>  <assay_target>
HL-60(TB) leukemia

>  <group_label>
NO

$$$$
>  <molecule>
O=S1c2ccccc2N=C(c2ccc3ccccc3c2)CC1c1ccccc1 (centres undefined)

>  <assay_target>
HL-60(TB) leukemia

>  <group_label>
YES

$$$$
>  <molecule>
COc1cccc(C2=NN(C(C)=O)C(c3cc(OC)c(OC)c(OC)c3)C2)c1 (centres undefined)

>  <assay_target>
HL-60(TB) leukemia

>  <group_label>
NO

$$$$
>  <molecule>
CNC(=S)NNC1=NCCCN1

>  <assay_target>
HL-60(TB) leukemia

>  <group_label>
YES

$$$$
>  <molecule>
CC1=NN(c2cccc(Cl)c2)C(=N/c2nc3ccccc3s2)/C1=C\C=C\c1ccccc1

>  <assay_target>
HL-60(TB) leukemia

>  <group_label>
YES

$$$$
>  <molecule>
NCCCCN

>  <assay_target>
HL-60(TB) leukemia

>  <group_label>
YES

$$$$
>  <molecule>
O=C1C(=O)c2ccccc2C=C1[N+](=O)[O-]

>  <assay_target>
HL-60(TB) leukemia

>  <group_label>
YES

$$$$

// query Quick check, TGI >= 10 µM? C#CCn1c(=O)c(C)cn(/C(=C/C(=O)OCC)C(=O)OCC)c1=O
// result YES

// query Quick check, TGI >= 10 µM? CC(C)(C)c1ccc(O)c(Br)c1
// result YES
